target: HIV reverse transcriptase (Human immunodeficiency virus type 1 group M subtype B, UniProt P03366); assay: Reverse transcriptase scintillation proximity assay (Example 4, Table 2); assay type: biochemical; conditions: 0.05 h, 10 μM inhibitor; relative to dimethyl sulfoxide = 100%; read-out: % RT activity remaining at 10 μM
Binary label based on remaining activity at 10 µM with cut-off 40%: below gives 1 (yes), not below gives 0 (no).

Here's what some known entries look like.
{"columns": ["Sample smiles", "Assigned category"],
 "data": [
  ["O=C(Nc1ccc2c(O)c(N=Nc3ccc(Br)cc3Br)c(S(=O)(=O)O)cc2c1)c1ccc(C(=O)Nc2ccc3c(O)c(N=Nc4ccc(Br)cc4Br)c(S(=O)(=O)O)cc3c2)cc1", "1 (yes)"],
  ["O=C(Nc1cnc2ccccc2c1)Nc1ccc2c(O)cc(S(=O)(=O)O)cc2c1", "0 (no)"],
  ["Cc1cc2nc(N=Nc3c(S(=O)(=O)O)cc4cc(NC(=O)c5ccc(C(=O)Nc6ccc7c(O)c(N=Nc8nc9cc(C)c(C)cc9[nH]8)c(S(=O)(=O)O)cc7c6)cc5)ccc4c3O)[nH]c2cc1C", "1 (yes)"],
  ["O=C(O)CCc1ccc(N=Nc2c(S(=O)(=O)O)cc3cc(Nc4c(Nc5ccc6c(O)c(N=Nc7ccc(CCC(=O)O)cc7)c(S(=O)(=O)O)cc6c5)c(=O)c4=O)ccc3c2O)cc1", "1 (yes)"]
]}

Next:
Q: Just wondering, is remaining activity at 10 µM of `COc1cc(C(=O)O)ccc1N=Nc1c(S(=O)(=O)O)cc2cc(Nc3c(Nc4ccc5c(O)c(N=Nc6ccc(C(=O)O)cc6OC)c(S(=O)(=O)O)cc5c4)c(=O)c3=O)ccc2c1O` below 40%?
Result: 1 (yes)
